- target_or_system: T1, Human CD19-his protein (human, UniProt P15391 20-291)
- T1 construct: bought protein; also called human CD19 protein; recombinant human CD19-His; not shown: His tag
- T1 sequence (looked up): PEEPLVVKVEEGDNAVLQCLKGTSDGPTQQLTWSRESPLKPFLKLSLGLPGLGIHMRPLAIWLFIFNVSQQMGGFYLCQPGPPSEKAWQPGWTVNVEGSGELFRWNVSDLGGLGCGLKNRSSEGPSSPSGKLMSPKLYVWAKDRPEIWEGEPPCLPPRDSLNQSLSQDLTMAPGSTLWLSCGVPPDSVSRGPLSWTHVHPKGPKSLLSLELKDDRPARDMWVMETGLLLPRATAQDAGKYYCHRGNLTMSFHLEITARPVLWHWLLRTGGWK
- assay_remarks: ELISA, antibody at 0.01 nM
Below, each entry is listed alongside its reported OD450.
Returns: the value as a bare number; no unit string appended.

Below are worked cases with known answers.
F2.15.26 (antibody, human IgG1, V domains shown, human-murine chimeric antibody, human IgG1) VH: QVQLKESGPGLVAPSQSLSITCTVSGFSLTDYGVSWIRQSPGKGLEWLGVIWGSGDTYYNSVLESRLSINKDNSKNQVFLKMNSLQTDDAAMYFCAKHSYYGGSFAMDYWGQGTSVTVSS VL: DIQMTQTTSSLSASLGDRVTISCRASQDISNYLNWYQQKPDGTVKLLIYYTSRLHSGVPSRFSGSGSGTDYSLTISNLEQEDIATYFCQQGKTLPWTFGGGTKLEIK :: 0.18
F4.48.12 (antibody, human IgG1, V domains shown, human-murine chimeric antibody, human IgG1) VH: QMQLKESGPGLVAPSQSLSITCTVSGFSLTDYGVSWIRQPPGKGLEWLGVIWGSGSTFYNSALTSRLSISKDNSKSQVFLKMNSLQTADTAMYFCAKHHYYGGSFAMDYWGQGTSVTVSS VL: DIQMTQASSSLSASLGDRVTISCKTSQDISNYLNWYQQKPDGTFKLLIHYTSRLHSGVPSRFSGSGSGSDYSLTISNLEREDIATYFCQQGNSLPYTFGGGTKLEMK :: 0.38

// recorded OD450 for F3.83.9 (antibody, human IgG1, V domains shown, human-murine chimeric antibody, human IgG1) VH: DVQLQESGPGLVKPSQSLSLTCSVTGYSITSGYYWNWIRQFPGNKLEWMGYISYDGGNNYNPSLKNRISITRDTSKNQFFLKLNSVTTEDTATYFCAREDYSNWYFDVWGTGTTVTVSS VL: DIVLTQSPASLAVSLGQRATISCRASQSVSKSSYSYMHWYQQKPGQSPKLLIKYASILKSGVPARFSGSGSGTDFTLNIHPVEEEDTATYYCQHSWEIPWTFGGGTKLEIK : 0.06

// recorded OD450 for F3.64.4 (antibody, human IgG1, V domains shown, human-murine chimeric antibody, human IgG1) VH: EVQLQQSGPELVKPGASVKISCKASGYTFTDYHINWVKQSHGKSPEWIGDINPNNGGTTYNQKFKDKATLTVDKSSSTAFMELRSLTSEDSAVYYCARFITTVVAWYFDVWGTGTTVTVSS VL: DIQMTQSPASLSVSVGETVTITCRASENIYSNLAWYQQKQGKSPQLLVYAATNLADGVPSRFSGSGSGTQYSLKINSLQSEDFGNYYCQRFWDTPRTFGGGTKLEIK : 0.13

// recorded OD450 for F3.40.14 (antibody, human IgG1, V domains shown, human-murine chimeric antibody, human IgG1) VH: QAQLQQSGPELVKPGASVKISCKASGYAFSGSWMNWVQQRPGKGLEWIGRIYPGDGDTYYSGKFKDKAILTADTSSSTAYMQLSSLTSEDSAVYFCAQLRSRYVMDYWGQGASVTVSS VL: DIVLTQSPASLAVSLGQRATISCRASESVSIHGTHLMHWYQQKPGQPPRLLIYAASNLESGVPARFSGSGSETDFTLNIHPVEEEDAATYFCQQGIDDPYTFGGGTKLEIK : 0.06
